Recorded values, source patent US20260209260A1.

System: 22rV1 prostate cancer cells (PSMA-positive)
Experiment: Cell viability assay (MTT), dark and blue light
Format: cell-based, Human
Conditions: in the dark, 72 h; read-out: GI50 22Rv1 Dark
measured property: GI50 (µM)
Write down the numeric answer in µM and omit the unit.

Examples from the recorded data:
structure	measured property	measurement
F[P-](F)(F)(F)(F)F.O=C(O)CC[C@H](NC(=O)N[C@@H](CCCCNC(=O)CCn1cc[n+]2[c]1[Ir-3]13([c]4ccccc4-c4sc5ccccc5[n+]41)([c]1ccccc1-c1sc4ccccc4[n+]13)[n+]1ccccc1-2)C(=O)O)C(=O)O	GI50	5.1
F[P-](F)(F)(F)(F)F.O=C(O)CC[C@H](NC(=O)N[C@@H](CCCCNC(=O)CCn1cc[n+]2[c]1[Ir-3]13([c]4cccc5ccc6ccc[n+]1c6c45)([c]1cccc4ccc5ccc[n+]3c5c14)[n+]1ccccc1-2)C(=O)O)C(=O)O	GI50	12.5
F[P-](F)(F)(F)(F)F.O=C(O)CC[C@H](NC(=O)N[C@@H](CCCCNC(=O)CCn1cc[n+]2[c]1[Ir-3]13([c]4c(sc5ccccc45)-c4cccc[n+]41)([c]1c(sc4ccccc14)-c1cccc[n+]13)[n+]1ccccc1-2)C(=O)O)C(=O)O	GI50	9.9

# next compound below
Exercise: State the recorded GI50 for this entry: `F[P-](F)(F)(F)(F)F.O=C(O)CC[C@H](NC(=O)N[C@@H](CCCCNC(=O)CCn1cc[n+]2[c]1[Ir-3]13([c]4ccccc4-c4c5ccccc5cc[n+]41)([c]1ccccc1-c1c4ccccc4cc[n+]13)[n+]1ccccc1-2)C(=O)O)C(=O)O`
Key: 4.1

* * *

Entries and their Photosensitizing index (PI) values follow.
System: MiaPaCa2 pancreas cancer cells
Assay: Cell viability assay (MTT), dark and blue light
Format: cell-based, Human
Conditions: MiaPaCa2, dark vs blue light

molecule	measurement
F[P-](F)(F)(F)(F)F.O=C(NCCCn1cc[n+]2[c]1[Ir-3]13([c]4ccccc4-c4c5ccccc5cc[n+]41)([c]1ccccc1-c1c4ccccc4cc[n+]13)[n+]1ccccc1-2)[c-]1cccc1.[Fe+2].c1cc[cH-]c1 [IV-h]	24.6
F[P-](F)(F)(F)(F)F.O=C(NCCCn1cc[n+]2[c]1[Ir-3]13([c]4ccccc4-c4sc5ccccc5[n+]41)([c]1ccccc1-c1sc4ccccc4[n+]13)[n+]1ccccc1-2)[c-]1cccc1.[Fe+2].c1cc[cH-]c1 [IV-k]	6.9
F[P-](F)(F)(F)(F)F.O=C(NCCCn1cc[n+]2[c]1[Ir-3]13([c]4c(sc5ccccc45)-c4cccc[n+]41)([c]1c(sc4ccccc14)-c1cccc[n+]13)[n+]1ccccc1-2)[c-]1cccc1.[Fe+2].c1cc[cH-]c1 [IV-j]	21.9

# next molecule below
Exercise: Hi! What's the reported Photosensitizing index (PI) for F[P-](F)(F)(F)(F)F.O=C(NCCCn1cc[n+]2[c]1[Ir-3]13([c]4cccc5ccc6ccc[n+]1c6c45)([c]1cccc4ccc5ccc[n+]3c5c14)[n+]1ccccc1-2)[c-]1cccc1.[Fe+2].c1cc[cH-]c1 [IV-i] on MiaPaCa2 pancreas cancer cells?
Key: 5.1

* * *

Assay: Luminescence emission spectra and quantum yield
Type: physicochemical
Conditions: CH2Cl2, room temperature, λexc 365 nm or 470 nm
Entries and their λem values follow.
Write down the numeric answer in nm and omit the unit.

molecule	measured property	quantity unit	measurement
F[P-](F)(F)(F)(F)F.O=C(NCCCn1cc[n+]2[c]1[Ir-3]13([c]4ccccc4-c4ccc5ccccc5[n+]41)([c]1ccccc1-c1ccc4ccccc4[n+]13)[n+]1ccccc1-2)[c-]1cccc1.[Fe+2].c1cc[cH-]c1 [IV-g]	λem	nm	579

# next molecule below
Exercise: State the recorded λem for this entry: F[P-](F)(F)(F)(F)F.O=C(O)CC[C@H](NC(=O)N[C@@H](CCCCNC(=O)CCn1cc[n+]2[c]1[Ir-3]13([c]4ccccc4-c4ccc5ccccc5[n+]41)([c]1ccccc1-c1ccc4ccccc4[n+]13)[n+]1ccccc1-2)C(=O)O)C(=O)O [III-g]
Key: 593
